TEST_NAME: Half life in dog at 2.04 mg/kg, sublingual
Format: ADME, organism-based, Canis lupus familiaris
Design: dose 2.04 mg/kg
TEST_CONTEXT: in vivo
OBSERVATION_TYPE: half-life
Value and unit, in that order.

Task item: Which half-life value belongs to C[C@@H]1CN(C(=O)[C@@H]2CN(C(C)(C)C)C[C@H]2c2ccc(F)cc2F)C[C@H](C)[C@@]1(O)c1ccccc1.Cl ?
Reply: 4 h

====

Exercise: for every item that follows, state its recorded pEC50.
ASSAYED_SYSTEM: Melanocortin receptor 4 (Homo sapiens)
Sequence (P32245 whole entry): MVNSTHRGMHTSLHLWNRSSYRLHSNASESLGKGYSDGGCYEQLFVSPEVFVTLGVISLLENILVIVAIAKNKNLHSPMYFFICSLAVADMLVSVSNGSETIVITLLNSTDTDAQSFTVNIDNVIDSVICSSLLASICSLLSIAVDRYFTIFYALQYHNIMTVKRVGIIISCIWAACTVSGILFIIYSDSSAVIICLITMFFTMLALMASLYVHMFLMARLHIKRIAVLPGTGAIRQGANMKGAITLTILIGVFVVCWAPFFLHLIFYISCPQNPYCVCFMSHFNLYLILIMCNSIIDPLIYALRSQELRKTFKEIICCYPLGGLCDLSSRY
TEST_NAME: Agonist activity at human recombinant MC4 receptor expressed in CHO cells by cAMP responsive beta lactamase reporter gene assay
Here pEC50 is given on a logarithmic scale as minus log10 of the concentration in mol/L.

Task item: Which pEC50 value belongs to CC(C)CN1C[C@H](C(=O)N2C[C@@H](C)[C@](O)(c3ccccc3)[C@@H](C)C2)[C@@H](c2ccc(F)cc2F)C1 ?
Reply: 7.14

Task item: Which pEC50 value belongs to CCN1C[C@@H](C(=O)N2C[C@@H](C)[C@](O)(c3ccccc3)[C@@H](C)C2)[C@H](c2ccc(F)cc2F)C1 ?
Reply: 7.07

Task item: Which pEC50 value belongs to C[C@@H]1CN(C(=O)[C@@H]2CN(C(C)(C)C)C[C@H]2c2ccc(F)cc2F)C[C@H](C)[C@@]1(O)c1ccc(C(F)(F)F)cc1 ?
Reply: 6.97

Task item: Which pEC50 value belongs to C[C@@H]1CN(C(=O)[C@H]2CN(c3cncnc3)C[C@@H]2c2ccc(F)cc2F)C[C@H](C)[C@@]1(O)c1ccccc1 ?
Reply: 6.93

Task item: Which pEC50 value belongs to C[C@@H]1CN(C(=O)[C@@H]2CNC[C@H]2c2ccc(F)cc2F)C[C@H](C)[C@@]1(O)c1cccc(F)c1 ?
Reply: 6.80

Task item: Which pEC50 value belongs to C[C@@H]1CN(C(=O)[C@H]2CN(CC3CC3)C[C@@H]2c2ccc(F)cc2F)C[C@H](C)[C@@]1(O)c1ccccc1 ?
Reply: 7.09

Task item: Which pEC50 value belongs to C[C@@H]1CN(C(=O)[C@@H]2CNC[C@H]2c2ccc(F)cc2F)C[C@H](C)[C@@]1(O)c1ccc(F)c(F)c1 ?
Reply: 6.54

Task item: Which pEC50 value belongs to C[C@@H]1CN(C(=O)C2CN(C(C)(C)C)CC2c2ccc(F)cc2F)C[C@H](C)[C@@]1(O)c1ccccc1 (mixture of isomers) ?
Reply: 5.41

Task item: Which pEC50 value belongs to C[C@@H]1CN(C(=O)[C@H]2CN(c3cccnn3)C[C@@H]2c2ccc(F)cc2F)C[C@H](C)[C@@]1(O)c1ccccn1 ?
Reply: 8.15

Task item: Which pEC50 value belongs to C[C@@H]1CN(C(=O)[C@H]2CN(c3cccnn3)C[C@@H]2c2ccc(F)cc2F)C[C@H](C)[C@@]1(O)C1CC1 ?
Reply: 7.09

Task item: Which pEC50 value belongs to CCN1C[C@@H](C(=O)N2C[C@@H](C)[C@](O)(c3ccc(F)cc3)[C@@H](C)C2)[C@H](c2ccc(F)cc2F)C1 ?
Reply: 6.83

Task item: Which pEC50 value belongs to C[C@@H]1CN(C(=O)[C@H]2CN(C3CCOCC3)C[C@@H]2c2ccc(F)cc2F)C[C@H](C)[C@@]1(O)c1ccccc1 ?
Reply: 7.74

Task item: Which pEC50 value belongs to C[C@@H]1CN(C(=O)[C@H]2CN(c3ncccn3)C[C@@H]2c2ccc(F)cc2F)C[C@H](C)[C@@]1(O)c1ccccc1 ?
Reply: 6.61

Task item: Which pEC50 value belongs to C[C@@H]1CN(C(=O)[C@@H]2CN(C)C[C@H]2c2ccc(F)cc2F)C[C@H](C)[C@@]1(O)c1ccc(F)cc1 ?
Reply: 6.44

Task item: Which pEC50 value belongs to CC(C)N1C[C@@H](C(=O)N2C[C@@H](C)[C@](O)(c3ccc(F)cc3F)[C@@H](C)C2)[C@H](c2ccc(F)cc2F)C1 ?
Reply: 6.66
